- Measurement Context: in n-hexanol, 293.15 K
Measured Property: solubility (mole fraction)

> print(dat)
                              line.notation  observed.measurement
1  Cc1c(C(=O)O)cc([N+](=O)[O-])cc1[N+](=O)[O-]                0.0114

* * *

- Measurement Context: in acetonitrile, 298.15 K
Measured Property: solubility (mole fraction)

> print(dat)
                              line.notation  observed.measurement
1  Cc1c(C(=O)O)cc([N+](=O)[O-])cc1[N+](=O)[O-]               0.00994

* * *

- Measurement Context: in ethanol, 318.15 K
Measured Property: solubility (mole fraction)

> print(dat)
                              line.notation  observed.measurement
1  Cc1c(C(=O)O)cc([N+](=O)[O-])cc1[N+](=O)[O-]                 0.099

* * *

- Measurement Context: in ethyl acetate, 328.15 K
Measured Property: solubility (mole fraction)

> print(dat)
                              line.notation           measured.property  observed.measurement
1  Cc1c(C(=O)O)cc([N+](=O)[O-])cc1[N+](=O)[O-]  solubility (mole fraction)                0.0694

* * *

- Measurement Context: in ethanol, 308.15 K
Measured Property: solubility (mole fraction)

> print(dat)
                              line.notation           measured.property  observed.measurement
1  Cc1c(C(=O)O)cc([N+](=O)[O-])cc1[N+](=O)[O-]  solubility (mole fraction)                0.0783

* * *

- Measurement Context: in n-butanol, 313.15 K
Measured Property: solubility (mole fraction)

> print(dat)
                              line.notation           measured.property  observed.measurement
1  Cc1c(C(=O)O)cc([N+](=O)[O-])cc1[N+](=O)[O-]  solubility (mole fraction)                0.0243

* * *

- Measurement Context: in n-butanol, 323.15 K
Measured Property: solubility (mole fraction)

> print(dat)
                              line.notation           measured.property  observed.measurement
1  Cc1c(C(=O)O)cc([N+](=O)[O-])cc1[N+](=O)[O-]  solubility (mole fraction)                 0.034

* * *

- Measurement Context: in n-butanol, 318.15 K
Measured Property: solubility (mole fraction)

> print(dat)
                              line.notation           measured.property  observed.measurement
1  Cc1c(C(=O)O)cc([N+](=O)[O-])cc1[N+](=O)[O-]  solubility (mole fraction)                0.0284

* * *

- Measurement Context: in n-propanol, 303.15 K
Measured Property: solubility (mole fraction)

> print(dat)
                              line.notation           measured.property  observed.measurement
1  Cc1c(C(=O)O)cc([N+](=O)[O-])cc1[N+](=O)[O-]  solubility (mole fraction)                0.0202

* * *

- Measurement Context: in n-hexanol, 333.15 K
Measured Property: solubility (mole fraction)

> print(dat)
                              line.notation           measured.property  observed.measurement
1  Cc1c(C(=O)O)cc([N+](=O)[O-])cc1[N+](=O)[O-]  solubility (mole fraction)                0.0394
